TARGET: Delta-type opioid receptor (Mus musculus)
Sequence (P32300 whole entry): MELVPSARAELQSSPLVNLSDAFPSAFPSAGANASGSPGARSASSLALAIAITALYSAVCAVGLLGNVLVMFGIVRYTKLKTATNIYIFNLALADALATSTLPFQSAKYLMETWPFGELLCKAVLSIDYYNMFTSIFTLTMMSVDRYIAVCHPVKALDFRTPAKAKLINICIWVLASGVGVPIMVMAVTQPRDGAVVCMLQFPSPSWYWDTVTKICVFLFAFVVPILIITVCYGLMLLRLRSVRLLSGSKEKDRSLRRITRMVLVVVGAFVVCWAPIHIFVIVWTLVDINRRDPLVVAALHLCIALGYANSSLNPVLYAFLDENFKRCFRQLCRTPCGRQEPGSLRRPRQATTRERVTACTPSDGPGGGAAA
EXPERIMENTAL PROTOCOL: Agonist activity at delta opioid receptor in mouse vas deferens assessed as inhibition of electric-field induced measured after 5 mins
Peptide text beside a SMILES is read from it. Hica(2S) = CC(C)C[C@H](O)C(=O)O
# EC50 per entry

COMPOUND: CC(C)C[C@@H](C(=O)O)N(C)C(=O)[C@H](Cc1ccccc1)NC(=O)CNC(=O)CNC(=O)[C@@H](N)Cc1ccc(O)cc1
TARGET: Delta-type opioid receptor (Mus musculus)
EC50, µM: 0.035

COMPOUND: CC(C)C[C@H](OC(=O)[C@H](Cc1ccccc1)NC(=O)CNC(=O)CNC(=O)[C@@H](N)Cc1ccc(O)cc1)C(=O)O (H-YGGF-{Hica(2S)})
TARGET: Delta-type opioid receptor (Mus musculus)
EC50, µM: 0.14

====

# half-life per entry
EXPERIMENTAL PROTOCOL: Half life in Sprague-Dawley rat plasma measured after 60 mins by HPLC method
Type: ADME, cell-free
Peptide text beside a SMILES is read from it. Hica(2S) = CC(C)C[C@H](O)C(=O)O

MOLECULE: CC(C)C[C@@H](C(=O)O)N(C)C(=O)[C@H](Cc1ccccc1)NC(=O)CNC(=O)CNC(=O)[C@@H](N)Cc1ccc(O)cc1
half-life, min: 10.7
//
MOLECULE: CC(C)C[C@H](OC(=O)[C@H](Cc1ccccc1)NC(=O)CNC(=O)CNC(=O)[C@@H](N)Cc1ccc(O)cc1)C(=O)O (H-YGGF-{Hica(2S)})
half-life, min: 3.3

====

EXPERIMENTAL PROTOCOL: Half life in monkey at 10 mg/kg, po
Format: ADME, organism-based, Macaca mulatta
MEASUREMENT PARAMETERS: rhesus monkey, in vivo

SMILES ENTRY: C=CC[C@H](C(=O)NO)[C@@H](CC(C)C)C(=O)N[C@H](C(=O)NC)C(C)(C)C
half-life, h: 27
//
SMILES ENTRY: C=CC[C@H](C(=O)NO)[C@@H](CC(C)C)C(=O)N[C@@H](Cc1ccccc1)C(=O)c1c[nH]c2ccccc12
half-life, h: 20

====

TARGET: Human immunodeficiency virus type 1 protease (Human immunodeficiency virus 1, UniProt Q72874)
EXPERIMENTAL PROTOCOL: Inhibition of HIV-1 protease
pIC50: −log10 of the molar value.
MEASURED METRIC: pIC50

SMILES ENTRY: CC(C)(C)NS(=O)(=O)CC[C@@H]1O[C@@H]1[C@H](Cc1ccccc1)NC(=O)[C@@H](NC(=O)OCc1ccccc1)C(C)(C)S(C)(=O)=O
RECORDED NUMBER: 7.69
//
SMILES ENTRY: CCN(C(C)C)S(=O)(=O)CC[C@@H]1O[C@@H]1[C@H](Cc1ccccc1)NC(=O)[C@H](CC(C)(C)S(C)(=O)=O)NC(=O)c1ccc2ccccc2n1
RECORDED NUMBER: 8.18
//
SMILES ENTRY: CC(C)(C)NS(=O)(=O)CC[C@@H]1O[C@@H]1[C@H](Cc1ccccc1)NOC(=O)CCC(=O)NC(=O)c1ccc2ccccc2n1
RECORDED NUMBER: 7.52
//
SMILES ENTRY: CC(C)C(NC(=O)C[C@@H]1O[C@@H]1[C@H](Cc1ccccc1)NC(=O)[C@H](CC(N)=O)NC(=O)c1ccc2ccccc2n1)C(C)C
RECORDED NUMBER: 7.70
